Where do these numbers come from? They come from ChEMBL document CHEMBL1135985.

Measured pIC50 accompanies every entry in the list below.
# Tested on: NIH3T3
# MEASUREMENT DESCRIPTION: Inhibition of NIH 3T3 cell growth required to induce 50% of maximum response using antiproliferative assay
# Assay type: functional, cell-based
# CONDITIONS USED: Mus musculus
Value format note: pIC50 is -log10 of concentration (mol/L); just state the number.

Input line: Data request, read-out pIC50, for CO[C@@]12[C@H](COC(N)=O)C3=C(C(=O)C(C)=C(N)C3=O)N1C[C@@H]1N[C@@H]12
Output line: 5.77

Input line: Data request, read-out pIC50, for CO[C@@]12[C@H](COC(N)=O)C3=C(C(O)=C(C)C(=N)C3=O)N1C[C@H]1[C@@H]2N1C(=O)CCCC(=O)OCC(=O)[C@@]12OC(C)(C)O[C@@H]1CC1C3CCC4=CC(=O)C=C[C@]4(C)[C@@]3(F)[C@@H](O)C[C@@]12C (some centres undefined)
Output line: 5.62

Input line: Data request, read-out pIC50, for CC1(C)O[C@@H]2CC3C4CCC5=CC(=O)C=C[C@]5(C)[C@@]4(F)[C@@H](O)C[C@]3(C)[C@]2(C(=O)CO)O1.CO[C@@]12[C@H](COC(N)=O)C3=C(C(=O)C(C)=C(N)C3=O)N1C[C@@H]1N[C@@H]12 (some centres undefined) [MIXTURE OF MMC AND TA]
Output line: 5.80

--- query ---
Input line: Data request, read-out pIC50, for CC1(C)O[C@@H]2C[C@H]3[C@@H]4CCC5=CC(=O)C=C[C@]5(C)[C@@]4(F)[C@@H](O)C[C@]3(C)[C@]2(C(=O)CO)O1 [TRIAMCINOLONE ACETONIDE]
Output line: 5.60
